- Test System: human cholecystokinin-2 receptor (CCK-2R) (Homo sapiens, UniProt P32239)
- Construct: host or cells: 1321-N1 cells (plasma membranes prepared by Evotec AG Hamburg)
- Sequence (P32239 whole entry): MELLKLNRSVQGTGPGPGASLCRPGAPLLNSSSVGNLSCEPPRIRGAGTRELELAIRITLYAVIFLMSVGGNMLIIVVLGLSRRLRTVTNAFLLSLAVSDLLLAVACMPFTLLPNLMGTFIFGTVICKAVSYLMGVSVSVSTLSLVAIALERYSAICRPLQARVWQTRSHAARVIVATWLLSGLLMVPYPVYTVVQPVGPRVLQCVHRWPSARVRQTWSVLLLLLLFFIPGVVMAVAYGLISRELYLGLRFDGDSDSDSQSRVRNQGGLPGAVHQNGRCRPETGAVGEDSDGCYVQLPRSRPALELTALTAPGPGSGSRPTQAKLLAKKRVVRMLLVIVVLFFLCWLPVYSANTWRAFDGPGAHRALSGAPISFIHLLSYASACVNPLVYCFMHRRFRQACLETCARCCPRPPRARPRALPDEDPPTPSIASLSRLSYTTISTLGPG
- Protocol Summary: In vitro potency on CCK-2R, whole cell functional assay (IP1 accumulation, IP-One HTRF)
- Type: cell-based
- Settings: 1321-N1 cells stably expressing CCK-2R; IP1 accumulation; highest dose tested 1×10^6 pM; read-out: EC50 (CCK-2R)
Starred links: 1 amine or outer side, 2 acyl side, 3 side chain; linkers in the order of their positions; H or OH if unused. Non-standard residues stand in square brackets, D forms with d. Residues, ends and D or L forms follow the SMILES beside them. *: point of attachment. sY = N[C@@H](Cc1ccc(OS(=O)(=O)O)cc1)C(=O)O; C18 diacid = O=C(O)CCCCCCCCCCCCCCCCC(=O)*; γGlu = O=C(O)[C@H](CCC(=O)[*:2])N[*:1]; NMeF = CN[C@@H](Cc1ccccc1)C(=O)O; dNMeD = CN[C@H](CC(=O)O)C(=O)O; Nle = CCCC[C@H](N)C(=O)O; AEEA = NCCOCCOCC(=O)O
Outcome Measure: EC50

[[record]]
molecule = "CCCC[C@H](NC(=O)[C@H](Cc1ccc(OS(=O)(=O)O)cc1)NC(=O)[C@H](CC(=O)O)NC(=O)COCCOCCNC(=O)COCCOCCNC(=O)CC[C@H](NC(=O)CCCCCCCCCCCCCCCCC(=O)O)C(=O)O)C(=O)NCC(=O)N[C@@H](Cc1c[nH]c2ccccc12)C(=O)N[C@@H](CCCC)C(=O)N(C)[C@H](CC(=O)O)C(=O)N[C@@H](Cc1c[nH]c2ccccc12)C(N)=O [Example 1] ({C18 diacid-γGlu-AEEA-AEEA}-D[sY][Nle]GW[Nle][dNMeD]W-NH2)"
result_value = "> 1000 nM"

[[record]]
molecule = "CCCC[C@H](NC(=O)[C@H](Cc1c[nH]c2ccccc12)NC(=O)CNC(=O)[C@H](CC(C)C)NC(=O)[C@H](Cc1ccc(OS(=O)(=O)O)cc1)NC(=O)[C@@H](CCC(=O)O)NC(=O)COCCOCCNC(=O)COCCOCCNC(=O)CC[C@H](NC(=O)CCCCCCCCCCCCCCCCC(=O)O)C(=O)O)C(=O)N(C)[C@H](CC(=O)O)C(=O)N(C)[C@@H](Cc1ccccc1)C(N)=O [Example 49] ({C18 diacid-γGlu-AEEA-AEEA}-[dE][sY]LGW[Nle][dNMeD][NMeF]-NH2)"
result_value = "46 nM"

[[record]]
molecule = "CCCC[C@H](NC(=O)[C@H](Cc1c[nH]c2ccccc12)NC(=O)CNC(=O)[C@H](Cc1ccccc1)NC(=O)[C@H](Cc1ccc(OS(=O)(=O)O)cc1)NC(=O)[C@@H](N)CC(=O)O)C(=O)N(C)[C@H](CC(=O)O)C(=O)N(C)[C@@H](Cc1ccccc1)C(N)=O [Example 78] (H-D[sY]FGW[Nle][dNMeD][NMeF]-NH2)"
result_value = "> 1000 nM"


Values compiled from patent US20170008928A1.
